Task for the reader: assign each of the following molecules its reported GI50.
Test system: NCI-H522
methodDescription: NCI tumour cell line growth inhibition, 48 h
Calls of active or inactive are those of the source. Rule as the data show it: active = GI50 up to about 1.1 µM and inactive = higher.

Give reported GI50 value for `COc1ccc2[nH]c3c(c2c1)CCc1ccccc1-3`
26.7 µM (inactive)

Give reported GI50 value for `O=[N+]([O-])c1cccc(/C=N/C23CC4CC(CC(C4)C2)C3)c1`
> 100 µM (inactive)

Give reported GI50 value for `CCOC(=O)/C(Cl)=C(\C)Nc1nc2c(ccc3ccccc32)s1`
9.35 µM (inactive)

Give reported GI50 value for CCOC(=O)N1N=NC2C3OC(C[C@@]3(C#N)OC(C)=O)[C@H]21 (stereo partly specified)
> 100 µM (inactive)

Give reported GI50 value for O=C(Cc1ccccc1)N/N=C(/c1nc2ccc([N+](=O)[O-])cc2nc1O)C(O)c1ccc(C(O)/C(=N/NC(=O)Cc2ccccc2)c2nc3ccc([N+](=O)[O-])cc3nc2O)cc1 (stereo unspecified)
3.3 µM (inactive)

Give reported GI50 value for `C=C(C(=C)P(=S)(C(C)C)C(C)C)P(=S)(C(C)C)C(C)C`
> 100 µM (inactive)

Give reported GI50 value for `Cc1cc2c(c(=O)n1C)SCC2`
> 100 µM (inactive)

Give reported GI50 value for Cc1nc2c(o1)C(=O)c1ccccc1/C2=N/C1CCCCC1N (stereo unspecified)
1.06 µM (active)

Give reported GI50 value for `COc1cc(/C=C/c2nc(NC(=S)Nc3ccccc3)nnc2C)cc(OC)c1OC`
11.1 µM (inactive)

Give reported GI50 value for CCCCN1C(=O)N(c2ccc(OCC)cc2)C2N(CCCC)C1C(C)(C)C2(C)C (stereo unspecified)
44.1 µM (inactive)

Give reported GI50 value for Clc1ccc(C2C3COc4ccccc4C3=NN2c2ccccc2)cc1 (stereo unspecified)
17.8 µM (inactive)
